assay: in vitro; settings: human, hela cells, % viability
Binary label based on viability at 28.5 h, 10 µM with cut-off 90%: below gives T, not below gives F.

[[record]]
compound = "Cc1cc(NC(=O)CCc2c(C)nc(N3CCOCC3)[nH]c2=O)no1 [CBK305636]"
class_assignment = "F"

[[record]]
compound = "Cc1nccn1CCCn1cncc1-c1cnn(C2CCCCC2)c1 [CBK281816]"
class_assignment = "F"

[[record]]
compound = "Cc1cc(C)n(C2CCN(Cc3cn(C)c4cc(F)ccc34)CC2)n1 [CBK281806]"
class_assignment = "F"

[[record]]
compound = "CNC(=O)C1(Cc2ccccc2-c2cccs2)CCN(C(=O)Cc2ccc(C)cc2)CC1 [CBK285697]"
class_assignment = "F"

[[record]]
compound = "CN1C(=O)c2ccccc2C(=O)[C@@]2(C)CN(C3CCCC3)C[C@@H]12 [CBK283476]"
class_assignment = "T"

[[record]]
compound = "N#Cc1cccc(S(=O)(=O)N2CCCCC2CO)c1 (stereo not shown) [CBK051524]"
class_assignment = "F"

[[record]]
compound = "COc1ccc(CNC(=O)c2cc(S(=O)(=O)N(C)C)ccc2OC)cc1 [CBK307586]"
class_assignment = "T"

[[record]]
compound = "O=C(Nc1ccc(-c2nc(-c3ccccc3)c3cc(NC(=O)c4cccs4)ccc3n2)cc1)c1cccs1 [CBK261547]"
class_assignment = "T"

[[record]]
compound = "S=c1[nH]nc(COc2ccccc2)n1C1CCCCC1 [CBK014411]"
class_assignment = "F"

[[record]]
compound = "O=C(Cn1cc(/C=C/c2[nH]c(=O)[nH]c(=O)c2[N+](=O)[O-])c2ccccc21)Nc1ccc2c(c1)OCO2 [CBK267036]"
class_assignment = "T"

[[record]]
compound = "O=C(c1ccc(S(=O)(=O)N2CCCC2)cc1)N1CCN(C/C=C/c2ccccc2)CC1 [CBK263587]"
class_assignment = "F"

[[record]]
compound = "COC(=O)c1ccc(NC(=O)c2c(Br)c(Br)c(Br)c(Br)c2C(=O)O)cc1 [CBK261321]"
class_assignment = "F"

[[record]]
compound = "O=C(Cn1cnnn1)NC1CCCC1 [CBK200372]"
class_assignment = "F"

[[record]]
compound = "N#Cc1c(NC(=O)c2ccc(C(=O)O)cc2C(=O)O)sc2c1CCCC2 [CBK262722]"
class_assignment = "F"

[[record]]
compound = "Cc1nn(CC(=O)NCC(c2cccnc2)N2CCOCC2)c(C)c1Cl (stereo not shown) [CBK304659]"
class_assignment = "F"


----------
Recorded viability at 28.5 h, 10 µM for the following molecules
test: in vitro; conditions: human, hela cells, % viability
Measured Parameter: viability at 28.5 h, 10 µM

[[record]]
molecule = "Oc1cccc(OCCOc2cc(C(F)(F)F)ccn2)c1"
recorded_value = "84.8%"

[[record]]
molecule = "Cl/C(=C\\c1ccccc1)CN1CCOCC1"
recorded_value = "114%"

[[record]]
molecule = "CN1C[C@@H](NC(=O)c2ccc3c(c2)OCO3)C[C@H]1c1nc(-c2ccc(Cl)cc2)no1"
recorded_value = "90.6%"

[[record]]
molecule = "CCOC(=O)c1ccc(-c2ccc(/C=C/c3nn4cnnc4c(O)c3[N+](=O)[O-])o2)cc1"
recorded_value = "107%"

[[record]]
molecule = "N#Cc1c2c(c3nncn3c1Nc1ccccc1)CCCC2"
recorded_value = "97.7%"

[[record]]
molecule = "Cn1cc(C2CNCCN2C(=O)c2coc3ccccc23)cn1 (stereo not drawn) [CBK304270C]"
recorded_value = "87%"

[[record]]
molecule = "CS(=O)(=O)c1ccc(CN2C[C@@H]3OCC(=O)N(Cc4ccc(F)cc4)[C@@H]3C2)cc1"
recorded_value = "119%"

[[record]]
molecule = "O=C(/C=C(O)/C(O)=C/C(=O)c1ccc(Cl)cc1)c1ccc(Cl)cc1"
recorded_value = "102%"

[[record]]
molecule = "O=C(CC1CCCO1)NS(=O)(=O)c1cccc(-c2nnco2)c1 (stereo not drawn)"
recorded_value = "94.3%"


----------
assay: in vitro; conditions: human, hela cells, % viability
Recorded viability at 28.5 h, 10 µM for the following compounds
Measured Parameter: viability at 28.5 h, 10 µM (%)

[[record]]
compound = "CS(=O)(=O)Nc1nnc(C(F)(F)F)s1"
unit_symbol = "%"
recorded_value = 97.6

[[record]]
compound = "CC(C(=O)N1CCOCC1)N(c1cc(Cl)ccc1Cl)S(C)(=O)=O (centres unmarked)"
unit_symbol = "%"
recorded_value = 88.8

[[record]]
compound = "COc1cc(CN2CCC(Cc3ccccc3-c3ccccc3)(C(N)=O)CC2)cc(OC)c1"
unit_symbol = "%"
recorded_value = 88.1

[[record]]
compound = "O=C(c1ccc(-c2cnc3[nH]c(=O)n(C4CCCCC4)c3n2)cc1)N1CCOCC1"
unit_symbol = "%"
recorded_value = 106

[[record]]
compound = "COc1ccc(CNc2oc(-c3ccccc3)nc2S(=O)(=O)c2ccccc2)cc1"
unit_symbol = "%"
recorded_value = 105


----------
assay: in vitro; details: human, hela cells, % viability
Recorded viability at 28.5 h, 10 µM for the following molecules
Measured Parameter: viability at 28.5 h, 10 µM (%)

[[record]]
molecule = "CCc1nc2ccc(C(=O)Nc3ccc(OC)c(OC)c3)cn2c1N(CC)C(=O)NCCc1ccccc1 [CBK147035]"
recorded_value = 97.1

[[record]]
molecule = "CC(C)(N)CNC(=O)c1cc(C(C)(C)C)nn1Cc1ccc(Cl)cc1Cl [CBK107296]"
recorded_value = 95.6

[[record]]
molecule = "Cc1ccc(C(=O)CN2CCC3(CC2)CC(=O)c2cc(Br)ccc2O3)cc1 [CBK162266]"
recorded_value = 91.2

[[record]]
molecule = "O=C(c1cnoc1-c1ccc(F)cc1)N1CCCC1 [CBK153707]"
recorded_value = 97.9

[[record]]
molecule = "CCc1nc(CN(C(C)=O)C2CCN(CCc3ccccn3)C2)no1 (stereo not drawn) [CBK305372]"
recorded_value = 96.7

[[record]]
molecule = "COc1ccc(-c2[nH]c3ncccc3c2CN2CCCC2)cc1 [CBK285331]"
recorded_value = 69.4

[[record]]
molecule = "CN(CC(=O)NNC(=O)c1ccc(C(C)(C)C)cc1)S(=O)(=O)c1cc(Cl)ccc1Cl [CBK267376]"
recorded_value = 107

[[record]]
molecule = "NS(=O)(=O)c1ccc(CNC(=O)c2ccccc2Nc2cccc(C(F)(F)F)c2)cc1 [CBK149579]"
recorded_value = 94.4

[[record]]
molecule = "O=C(O)C1Cc2ccccc2C(=O)N1CCc1ccccc1 (stereo not drawn) [CBK286592]"
recorded_value = 87.4


----------
experiment: in vitro; conditions: human, hela cells, % viability
Recorded viability at 28.5 h, 10 µM for the following molecules
Measured Parameter: viability at 28.5 h, 10 µM (%)

[[record]]
molecule = "O=S(=O)(NCc1ccc(CNS(=O)(=O)c2ccccc2)cc1)c1ccccc1"
recorded_value = 113

[[record]]
molecule = "O=C(OCCN1CCOCC1)c1ccccc1I"
recorded_value = 95.4

[[record]]
molecule = "O=C(/C=C/c1cccnc1)Nc1cncc(OC2CCNCC2)n1 [CBK038919T]"
recorded_value = 96.9

[[record]]
molecule = "CCCn1c(SCc2nc(N)nc(Nc3ccccc3CC)n2)n[nH]c1=O"
recorded_value = 86.6

[[record]]
molecule = "Nc1ncc(-c2ccc(Cl)cc2)nc1-c1ccc(N2CCOCC2)cc1"
recorded_value = 111

[[record]]
molecule = "O=C(NCC(c1ccccc1)c1ccccc1)N1CCN(c2ccc(F)cc2)CC1"
recorded_value = 97

[[record]]
molecule = "COc1ccc(-c2cc(C(=O)Nc3ccc(O)cc3)cnc2-c2ccc(F)cc2)cc1"
recorded_value = 95.5

[[record]]
molecule = "COc1ccc(C(=O)Nc2ccc(N3CCN(C(=O)C(C)(C)C)CC3)cc2)cc1OC"
recorded_value = 90.6

[[record]]
molecule = "O=C(Nc1ccc(S(=O)(=O)NCCc2ccccc2)cc1)c1ccncc1"
recorded_value = 90.3


----------
assay: in vitro; conditions: human, hela cells, % viability
Recorded viability at 28.5 h, 10 µM for the following compounds
Measured Parameter: viability at 28.5 h, 10 µM

[[record]]
compound = "CCOC(=O)Cn1ncc2c3sc(C)cc3n(C)c2c1=O [CBK282388]"
recorded_value = "96.2%"

[[record]]
compound = "c1ccc(N2CCN(c3nc4cc5c(cc4s3)OCO5)CC2)cc1 [CBK287495]"
recorded_value = "108%"

[[record]]
compound = "CCOC(=O)CC(=O)CSc1nc(-c2cccnc2)ccc1C#N [CBK267456]"
recorded_value = "89.6%"

[[record]]
compound = "CN(C)S(=O)(=O)N(CC(=O)Nc1cccc([N+](=O)[O-])c1)c1ccccc1 [CBK265904]"
recorded_value = "90.2%"

[[record]]
compound = "COc1ccc(Cl)cc1NC(=O)C1CCCN1S(=O)(=O)c1ccc(F)cc1 (centres unmarked) [CBK069866]"
recorded_value = "108%"

